Recorded values, source patent US9051304B2.

assay: Cytosolic clearance in human liver cytosol; assay type: in vitro ADME; settings: 0.5 μM compound, 1 mg/ml human liver cytosol, 37° C., pH 7.5; read-out: human cytCL (cytosolic clearance)
result_type: cytosolic intrinsic clearance at 0.5 μM

The reported value for CCONC(=O)C(=O)C(Cc1ccccc1)NC(=O)c1cccnc1-n1ccc(-c2ccccc2)n1 (stereo not shown) in terms of cytosolic intrinsic clearance at 0.5 μM is < 14 µL/min/mg

* * *

molecular target: cathepsin K activated from recombinant human procathepsin K (Homo sapiens, UniProt P43235); construct: purchased Calbiochem 342001; host or cells: E. coli; experiment: Cathepsin K enzyme inhibition, kinetic fluorescence assay; format: biochemical; settings: selectivity ratio vs calpain
Sequence (P43235 115-329): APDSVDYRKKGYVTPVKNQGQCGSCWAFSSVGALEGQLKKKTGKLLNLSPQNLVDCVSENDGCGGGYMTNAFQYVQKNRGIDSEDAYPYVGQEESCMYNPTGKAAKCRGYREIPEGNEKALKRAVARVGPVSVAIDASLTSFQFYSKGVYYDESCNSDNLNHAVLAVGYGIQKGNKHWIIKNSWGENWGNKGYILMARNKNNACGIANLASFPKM
result_type: Sel cat. K (Ki(cathepsin K)/Ki(calpain) ratio)

Entry CC(C)(C)ONC(=O)C(=O)C(Cc1ccccc1)NC(=O)c1cccnc1-n1ccc(-c2ccccc2)n1 (centres unmarked) [Example 16] : Sel cat. K (Ki(cathepsin K)/Ki(calpain) ratio) on cathepsin K activated from recombinant human procathepsin K (Homo sapiens, UniProt P43235) = ∘

Entry CC(C)(C)CONC(=O)C(=O)C(Cc1ccccc1)NC(=O)c1cccnc1-n1ccc(-c2ccccc2)n1 (centres unmarked) [Example 21] : Sel cat. K (Ki(cathepsin K)/Ki(calpain) ratio) on cathepsin K activated from recombinant human procathepsin K (Homo sapiens, UniProt P43235) = ∘

Entry O=C(NOCC1CC1)C(=O)C(Cc1ccccc1)NC(=O)[C@H]1CCC(=O)N1Cc1ccccc1 (some centres unmarked) [Example 31] : Sel cat. K (Ki(cathepsin K)/Ki(calpain) ratio) on cathepsin K activated from recombinant human procathepsin K (Homo sapiens, UniProt P43235) = ∘

* * *

target: cathepsin L isolated from human liver (Homo sapiens); construct: cathepsin L—isolated from human liver; purchased Calbiochem 219402; host or cells: human liver (tissue isolate); assay: Cathepsin L enzyme inhibition, kinetic fluorescence assay; type: biochemical; conditions: selectivity ratio vs calpain
Sequence (P07711 114-333): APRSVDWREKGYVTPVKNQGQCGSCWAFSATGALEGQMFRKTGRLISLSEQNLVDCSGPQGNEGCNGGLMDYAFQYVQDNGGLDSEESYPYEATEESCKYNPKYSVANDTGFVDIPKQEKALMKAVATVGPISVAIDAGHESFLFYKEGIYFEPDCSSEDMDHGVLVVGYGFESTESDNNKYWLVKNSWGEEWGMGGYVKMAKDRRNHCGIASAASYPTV
result_type: Sel cat. L (Ki(cathepsin L)/Ki(calpain) ratio)

The reported value for CC(C)(C)CONC(=O)C(=O)C(Cc1ccccc1)NC(=O)c1cccnc1-n1ccc(-c2ccccc2)n1 (centres unmarked) [Example 21] in terms of Sel cat. L (Ki(cathepsin L)/Ki(calpain) ratio) is ∘

The reported value for O=C(NOCC1CC1)C(=O)C(Cc1ccccc1)NC(=O)[C@H]1CCC(=O)N1Cc1ccccc1 (some centres unmarked) [Example 31] in terms of Sel cat. L (Ki(cathepsin L)/Ki(calpain) ratio) is ∘

* * *

test: Cytosolic clearance in cynomolgus monkey liver cytosol; type: in vitro ADME; conditions: female; 0.5 μM compound, 1 mg/ml cynomolgus monkey liver cytosol, 37° C., pH 7.5; read-out: cyno cytCL (cytosolic clearance)
result_type: cytosolic intrinsic clearance at 0.5 μM

The reported value for CCONC(=O)C(=O)C(Cc1ccccc1)NC(=O)c1cccnc1-n1ccc(-c2ccccc2)n1 (stereo not shown) [Example 7] in terms of cytosolic intrinsic clearance at 0.5 μM is < 18 µL/min/mg

* * *

biological target: cathepsin B isolated from human liver (Homo sapiens); construct: cathepsin B—isolated from human liver; purchased Calbiochem 219362; host or cells: human liver (tissue isolate); assay: Cathepsin B enzyme inhibition, kinetic fluorescence assay; format: biochemical; conditions: selectivity ratio vs calpain
result_type: Sel cat. B (Ki(cathepsin B)/Ki(calpain) ratio)

The reported value for CONC(=O)C(=O)C(Cc1ccccc1)NC(=O)c1cccnc1-n1ccc(-c2ccc(N3CCOCC3)cc2)n1 (centres unmarked) in terms of Sel cat. B (Ki(cathepsin B)/Ki(calpain) ratio) is ∘

The reported value for CONC(=O)C(=O)C(Cc1ccccc1)NC(=O)c1cccnc1-n1cc(Cl)c(-c2ccccc2)n1 (centres unmarked) in terms of Sel cat. B (Ki(cathepsin B)/Ki(calpain) ratio) is ∘
